The origin of these recorded values is PubChem BioAssay AID1996.

conditions: buffer; pH 7.4; 200.0 µM
Provide the reported solubility kinetic of each item.
Write the answer as a number in µg/mL, unit excluded.

Challenge: What measured solubility kinetic goes with `Cl.O=C(CN1CCCCC1)Nc1cccc(Cl)c1` ?
Response given: 33.6

Challenge: What measured solubility kinetic goes with CC1(NC(=O)Nc2cccc3ccccc23)CCS(=O)(=O)C1 (stereo not given) ?
Response given: 43

Challenge: What measured solubility kinetic goes with `CCOC(=O)c1sc(NC(=O)c2ccc(OC(C)=O)cc2)nc1C` ?
Response given: 0.7

Challenge: What measured solubility kinetic goes with `Cc1ccc(-c2ocnc2C(=O)Nc2nc(C)cs2)cc1` ?
Response given: 1.1

Challenge: What measured solubility kinetic goes with `O=C(CN1CCCCCC1)Nc1c(Cl)cc(Cl)cc1Cl` ?
Response given: 42.1

Challenge: What measured solubility kinetic goes with `COc1cccc(OC)c1C(=O)NC(=O)Nc1c(C)cccc1C` ?
Response given: 5.2

Challenge: What measured solubility kinetic goes with `CC(C)CC(=O)N1CCN(Cc2ccccc2Br)CC1` ?
Response given: 42

Challenge: What measured solubility kinetic goes with `Cn1c(SCc2c(F)cccc2Cl)nc2c(c1=O)SCC2` ?
Response given: 6.1

Challenge: What measured solubility kinetic goes with CC(=O)C1=C(Nc2ccccc2)CC(C)(O)C(C(C)=O)C1c1ccccc1 (stereo not given) ?
Response given: 4.1

Challenge: What measured solubility kinetic goes with `COc1ccc(C(=O)CC(=O)C(=O)Nc2cccc(F)c2)cc1` ?
Response given: 19

Challenge: What measured solubility kinetic goes with `N#Cc1ccccc1COC(=O)CCN=C1NS(=O)(=O)c2ccccc21` ?
Response given: 52.4

Challenge: What measured solubility kinetic goes with CC1CCCN(c2ccc(F)cc2N)C1.Cl (stereo not given) ?
Response given: 3.8

Challenge: What measured solubility kinetic goes with `Cc1ccsc1C(=O)OCC(=O)NCc1ccc(Cl)cc1` ?
Response given: 4.5

====

Provide the reported solubility kinetic of each item.
settings: buffer; pH 7.4; 200.0 µM

Challenge: What measured solubility kinetic goes with COCCCNS(=O)(=O)c1cc2c3c(c1)C(C)C(=O)N3CCC2 (stereo not given) ?
Response given: > 50.8 µg/mL

Challenge: What measured solubility kinetic goes with `O=C(Nc1cc(S(=O)(=O)N2CCOCC2)ccc1N1CCOCC1)c1ccccc1Cl` ?
Response given: > 69.9 µg/mL

Challenge: What measured solubility kinetic goes with `CCOc1ccc(Cn2c(=O)oc3ccccc32)cc1` ?
Response given: < 0.6 µg/mL

Challenge: What measured solubility kinetic goes with `O=C(/C=C(\O)c1ccccc1)C(=O)NNC(=O)c1ccccc1` ?
Response given: > 46.5 µg/mL

Challenge: What measured solubility kinetic goes with `O=C(Nc1ncccn1)C1CCCCC1` ?
Response given: > 30.8 µg/mL

====

details: buffer; pH 7.4; 200.0 µM
READOUT_NAME: solubility kinetic

Challenge: What measured solubility kinetic goes with `COc1ccc(-n2ccnc2)cc1` ?
Response given: > 26.1 µg/mL

Challenge: What measured solubility kinetic goes with `COc1cccc(C(=O)Nc2c(F)cccc2F)c1` ?
Response given: > 39.5 µg/mL

Challenge: What measured solubility kinetic goes with `Cc1ccc(NC(=O)N[C@H](C(=O)O)C(C)C)c(C)c1` ?
Response given: > 39.6 µg/mL

Challenge: What measured solubility kinetic goes with CCNC(=O)CC1C(=O)N(CC)C(=S)N1NC(=O)c1ccccc1 (configuration not stated) ?
Response given: > 52.3 µg/mL

Challenge: What measured solubility kinetic goes with Cc1c(C(=O)NCC2CCCO2)oc2c(Cl)cccc12 (configuration not stated) ?
Response given: > 44.1 µg/mL

Challenge: What measured solubility kinetic goes with CCc1ccc(S(=O)(=O)NC2CCCCNC2=O)cc1 (configuration not stated) ?
Response given: > 44.5 µg/mL

Challenge: What measured solubility kinetic goes with `O=C(CCc1ccccc1)NCCc1cccs1` ?
Response given: > 38.9 µg/mL

Challenge: What measured solubility kinetic goes with OC(CNCc1ccccc1)c1ccccc1 (configuration not stated) ?
Response given: > 34.1 µg/mL

Challenge: What measured solubility kinetic goes with CCCCCCCCOc1ccc(C2CC(=O)NC2=O)cc1 (configuration not stated) ?
Response given: < 0.6 µg/mL

Challenge: What measured solubility kinetic goes with `Cc1ccc(NCC(=O)N/N=C/c2cc(O)ccc2[N+](=O)[O-])cc1` ?
Response given: > 49.2 µg/mL

Challenge: What measured solubility kinetic goes with COC(=O)[C@@H]1CC(O)CN1C(=O)C12CC3CC(CC(C3)C1)C2 (some centres not stated) ?
Response given: > 46.1 µg/mL

Challenge: What measured solubility kinetic goes with `NS(=O)(=O)c1cccc(NC(=O)CSc2nnc(C3CC3)n2-c2ccccc2)c1` ?
Response given: > 64.4 µg/mL

Challenge: What measured solubility kinetic goes with `O=C(COC(=O)c1cccnc1Cl)NCc1ccc(F)cc1` ?
Response given: > 48.4 µg/mL

Challenge: What measured solubility kinetic goes with `Cc1cc(S(=O)(=O)N2CCc3ccccc3C2)ccc1F` ?
Response given: < 0.7 µg/mL

Challenge: What measured solubility kinetic goes with O=C(NC(=S)NC1C2CC3CC(C2)CC1C3)c1ccccc1 (configuration not stated) ?
Response given: < 0.3 µg/mL

Challenge: What measured solubility kinetic goes with `CNC(=O)c1sc(-c2ccccn2)nc1C` ?
Response given: > 35 µg/mL

Challenge: What measured solubility kinetic goes with `COc1ccc(NC(=O)/C(C#N)=C/c2ccc(-c3ccccc3C(=O)O)o2)cc1` ?
Response given: > 58.3 µg/mL

Challenge: What measured solubility kinetic goes with Cc1cccc(C)c1NC(=O)CN1C(=O)C2CC=CCC2C1=O (configuration not stated) ?
Response given: > 46.9 µg/mL

Challenge: What measured solubility kinetic goes with CCCCN1C(=O)N(C)C2NC(=S)NC21 (configuration not stated) ?
Response given: > 34.2 µg/mL

Challenge: What measured solubility kinetic goes with `Cc1nc(N)nc(N/N=C/c2ccccc2)n1` ?
Response given: > 34.2 µg/mL

Challenge: What measured solubility kinetic goes with `O=C(O)COCC(=O)NC1CCN(Cc2ccccc2)CC1` ?
Response given: > 46 µg/mL

Challenge: What measured solubility kinetic goes with `CN(C)/C=N/c1ncc(C(=O)OC(C)(C)C)s1` ?
Response given: > 38.3 µg/mL
